- measured.target: Histamine H3 receptor (Mus musculus)
- assay.text: Compound was tested for its effect at histamine H3 receptors (in vivo) on mice by central H3-receptor test.
- Type: functional, organism-based
Recorded measurements of ED50, one per entry

A selection of reference data follows.
# molecule, ED50
rows = [
    ("CC[C@H](C)CNC(=O)OCCCc1c[nH]cn1", "> 10 mg/kg"),
    ("CCCCC(C)NC(=O)OCCCc1c[nH]cn1 (stereo not drawn)", "2.4 mg/kg"),
]

--- query ---
Provide value of ED50 for this record tested with Histamine H3 receptor (Mus musculus): "COCCCNC(=O)OCCCc1c[nH]cn1"
> 10 mg/kg

These entries and their values trace back to ChEMBL document CHEMBL1132581.
